Values compiled from paper PMC10276294.

# target: VvCHIL (Vitis vinifera, UniProt F6HC36)
# Sequence (F6HC36 entry or part of it): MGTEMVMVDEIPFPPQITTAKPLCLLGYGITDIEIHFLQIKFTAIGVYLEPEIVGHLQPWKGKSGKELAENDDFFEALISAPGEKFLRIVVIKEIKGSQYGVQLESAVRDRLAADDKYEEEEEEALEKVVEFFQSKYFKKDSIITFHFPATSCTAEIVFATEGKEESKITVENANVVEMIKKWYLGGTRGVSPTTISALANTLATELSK
# procedure_summary: Quercetin fluorescence enhancement assay, VvCHIL
# Type: binding
# particulars: fluorescence enhancement of 10 μM quercetin, protein titrated, 25 °C, pH 8.0
reported_endpoint: pKd
Entry type: numeric. Quantity: pKd, the -log10 of concentration in molar units.

Give the measured pKd for "O=c1c(O)c(-c2ccc(O)c(O)c2)oc2cc(O)cc(O)c12"
3.46

---

# target: PpCHIL-A L188W (Physcomitrium patens, UniProt A9T3E4, L188W)
# Sequence (A9T3E4 entry or part of it L188W): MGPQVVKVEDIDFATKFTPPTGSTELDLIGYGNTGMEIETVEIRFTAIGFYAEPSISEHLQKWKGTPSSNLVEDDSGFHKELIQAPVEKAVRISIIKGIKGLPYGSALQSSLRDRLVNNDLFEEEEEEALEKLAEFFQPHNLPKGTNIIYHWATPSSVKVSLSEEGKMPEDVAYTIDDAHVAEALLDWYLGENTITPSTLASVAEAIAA
# procedure_summary: DSF thermal shift, PpCHIL-A L188W variant
# Type: binding, Physcomitrella patens
Reported pKd by item:
The meaning of pKd here: minus log10 of the concentration in molar units.

O=C1C[C@@H](c2ccc(O)cc2)Oc2cc(O)cc(O)c21 : 3.74

Kindly consider the entry below.
Identify measured pKd obtained with PpCHIL-A L188W (Physcomitrium patens, UniProt A9T3E4, L188W) for O=C(/C=C/c1ccc(O)cc1)c1c(O)cc(O)cc1O [NC, 2ʹ,4,4ʹ,6ʹ-tetrahydroxychalcone] .
4.74
